FYI, the data here is from patent US10259810B2.

Target: ΔF508-CFTR (Homo sapiens, UniProt P13569, DEL508-508)
Construct: host or cells: CFBE41o-, doxycycline-inducible
Sequence (P13569 with tags, fused parts or gaps DEL508-508): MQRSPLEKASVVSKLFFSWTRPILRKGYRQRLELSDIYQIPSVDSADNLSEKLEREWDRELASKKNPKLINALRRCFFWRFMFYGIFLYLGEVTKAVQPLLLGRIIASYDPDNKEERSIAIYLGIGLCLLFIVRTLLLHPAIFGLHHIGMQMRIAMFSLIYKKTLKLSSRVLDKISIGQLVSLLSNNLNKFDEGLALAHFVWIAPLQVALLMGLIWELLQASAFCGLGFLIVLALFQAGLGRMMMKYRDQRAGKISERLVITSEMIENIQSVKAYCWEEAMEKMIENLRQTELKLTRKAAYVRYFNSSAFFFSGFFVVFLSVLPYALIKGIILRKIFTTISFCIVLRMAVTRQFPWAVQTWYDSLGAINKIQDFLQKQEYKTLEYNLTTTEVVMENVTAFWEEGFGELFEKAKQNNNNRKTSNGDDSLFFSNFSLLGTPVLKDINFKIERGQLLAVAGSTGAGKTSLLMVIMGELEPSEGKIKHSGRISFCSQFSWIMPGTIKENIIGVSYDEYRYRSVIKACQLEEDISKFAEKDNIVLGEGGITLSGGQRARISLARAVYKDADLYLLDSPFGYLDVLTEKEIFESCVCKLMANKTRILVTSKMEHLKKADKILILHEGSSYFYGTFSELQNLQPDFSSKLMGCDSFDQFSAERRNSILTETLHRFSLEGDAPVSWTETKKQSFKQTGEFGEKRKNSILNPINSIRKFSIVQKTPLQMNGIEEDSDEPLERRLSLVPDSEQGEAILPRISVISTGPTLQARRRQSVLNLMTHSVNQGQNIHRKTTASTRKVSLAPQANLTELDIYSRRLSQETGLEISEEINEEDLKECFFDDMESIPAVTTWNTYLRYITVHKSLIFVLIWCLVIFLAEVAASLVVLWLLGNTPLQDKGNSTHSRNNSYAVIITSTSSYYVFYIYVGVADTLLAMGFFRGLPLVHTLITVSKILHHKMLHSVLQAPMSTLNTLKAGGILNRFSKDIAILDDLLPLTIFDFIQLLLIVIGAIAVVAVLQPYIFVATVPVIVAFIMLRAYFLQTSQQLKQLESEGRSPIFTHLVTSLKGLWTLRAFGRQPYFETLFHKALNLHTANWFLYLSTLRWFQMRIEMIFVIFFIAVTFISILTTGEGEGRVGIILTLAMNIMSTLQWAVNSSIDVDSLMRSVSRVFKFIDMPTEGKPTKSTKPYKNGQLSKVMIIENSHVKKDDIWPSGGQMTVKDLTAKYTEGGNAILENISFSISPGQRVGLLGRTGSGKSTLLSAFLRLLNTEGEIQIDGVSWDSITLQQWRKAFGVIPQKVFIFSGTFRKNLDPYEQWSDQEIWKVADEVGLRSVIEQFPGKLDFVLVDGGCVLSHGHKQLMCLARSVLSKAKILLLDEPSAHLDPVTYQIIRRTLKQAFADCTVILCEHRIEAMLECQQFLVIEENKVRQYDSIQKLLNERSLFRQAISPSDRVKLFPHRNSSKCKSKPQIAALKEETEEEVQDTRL
Experiment: CFTR cell surface levels using HRP-tagged ΔF508-CFTR expressing CFBE cells, intrinsic corrector capacity
Type: cell-based
Settings: HRP-tagged ΔF508-CFTR expressing CFBE41o- cells; compound alone (intrinsic corrector capacity); 20 hours at 33° C.; read-out: EC50
pEC50: −log10 of the molar value.
Everything with pEC50 lower than 6 is rule not met; everything else, including exactly 6, is rule met.

The examples below pair each entry with its known result.
CS(=O)(=O)NC(=O)c1cc(OCC2CCC(F)(F)C2)c2c(C3CCC3)nn(-c3ccccc3)c2n1 (centres unmarked) [Compound 238] ... rule met
COCCS(=O)(=O)NC(=O)c1cc(N2CCN(C(C)C)CC2)c2c(C3CCC3)nn(-c3ccccc3)c2n1 [Compound 271] ... rule not met
COCCS(=O)(=O)NC(=O)c1cc(-c2ccc(N3CCC(C#N)CC3)nc2)c2c(OC3CCOC3)nn(-c3ccccc3)c2n1 (centres unmarked) [Compound 275] ... rule met
CC(C)c1nn(C2CCCCC2)c2nc(C(=O)NS(C)(=O)=O)cc(-c3cnc(N(C)C4CCOCC4)nc3)c12 [Compound 123] ... rule met
CC(C)c1nn(-c2ccc(F)cc2)c2nc(C(=O)NS(C)(=O)=O)cc(OCC3(C)CC(F)(F)C3)c12 [Compound 306] ... rule met
COC1CCN(C2CCN(c3cc(C(=O)NS(=O)(=O)N4CC(OC)C4)nc4c3c(C3CCC3)nn4-c3ccc(F)cc3)CC2)CC1 [Compound 645] ... rule met

Query: Decide: is the reported value of pEC50 for COCC1CCN(c2cc(C(=O)NS(=O)(=O)CC(N)=O)nc3c2c(C2CCC2)nn3-c2ccccc2)CC1 [Compound 384] equal to or greater than 6?
Reply: rule not met

Query: Reported pEC50 reaches at least 6 for COCC1CCN(c2cc(C(=O)NS(=O)(=O)CCNC(C)=O)nc3c2c(C2CCC2)nn3-c2ccccc2)CC1 [Compound 386] ?
Reply: rule not met

Query: hey, is pEC50 for this one >= 6? CCS(=O)(=O)NC(=O)c1cc(-c2cnc(N(C)C)nc2)c2c(C(C)C)nn(-c3cccc(N(C)C)c3)c2n1 [Compound 78]
Reply: rule not met

Query: Item COCCS(=O)(=O)NC(=O)c1cc(-c2ccc(N3CCOCC3)cc2)c2c(OC(C)C)nn(-c3ccccc3)c2n1 [Compound 226] with pEC50 of 6 or above?
Reply: rule met

Query: Has CCS(=O)(=O)NC(=O)c1cc(N2CCC(N3CCOCC3)CC2)c2c(C3CCC3)nn(-c3ccc(F)cc3)c2n1 [Compound 466] a recorded pEC50 greater than or equal to 6?
Reply: rule met

Query: Is it the case that COC1CN(S(=O)(=O)NC(=O)c2cc(N3CCC(N4CCOCC4)CC3)c3c(C4CCC4)nn(-c4ccc(F)cc4)c3n2)C1 [Compound 484] has pEC50 reaching or exceeding 6?
Reply: rule met

Query: Say whether CC1(C)CN(C2CCN(c3cc(C(=O)NS(C)(=O)=O)nc4c3c(C3CCC3)nn4-c3ccc(F)cc3)CC2)CCO1 [Compound 588] shows pEC50 of 6 or more.
Reply: rule met
